As an illustration, consider measured log10 IC50 for compounds on Escherichia coli β-glucuronidase (EcGUS) (Escherichia coli, UniProt P05804).
Sequence (P05804 whole entry): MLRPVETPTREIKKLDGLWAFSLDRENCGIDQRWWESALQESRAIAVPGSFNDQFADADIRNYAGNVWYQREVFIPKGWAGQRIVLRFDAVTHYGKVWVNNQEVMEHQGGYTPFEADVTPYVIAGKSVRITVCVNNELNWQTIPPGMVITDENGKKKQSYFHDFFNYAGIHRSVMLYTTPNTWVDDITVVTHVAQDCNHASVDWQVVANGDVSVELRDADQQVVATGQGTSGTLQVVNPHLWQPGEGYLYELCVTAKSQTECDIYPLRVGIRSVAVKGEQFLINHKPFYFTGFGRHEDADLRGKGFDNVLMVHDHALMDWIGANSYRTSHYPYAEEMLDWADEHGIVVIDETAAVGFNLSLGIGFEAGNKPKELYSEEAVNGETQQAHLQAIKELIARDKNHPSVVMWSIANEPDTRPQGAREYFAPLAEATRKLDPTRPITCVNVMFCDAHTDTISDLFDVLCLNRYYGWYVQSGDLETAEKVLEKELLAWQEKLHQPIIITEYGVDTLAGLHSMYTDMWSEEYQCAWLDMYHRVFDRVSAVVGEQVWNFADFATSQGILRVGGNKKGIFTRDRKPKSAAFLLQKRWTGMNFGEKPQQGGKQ
In plain terms, each number is the log10 of measured IC50 in µM.

Known results for compounds:
- Cc1ccc(-c2ccc(C(=O)N3CCS/C3=N\C#N)o2)cc1: 1.35
- N#C/N=C1\SCCN1C(=O)c1ccc(-c2ccc([N+](=O)[O-])cc2)o1: 1.35
- N#C/N=C1\SCCN1C(=O)c1ccc(-c2ccccc2F)o1: 1.08
- O=C(O)[C@@H](O)[C@H]1OC(=O)[C@H](O)[C@H]1O [D-Saccharic acid 1,4-lactone, D-saccharic acid-1,4-lactone, reference compound]: 1.83
- N#C/N=C1\SCCN1C(=O)c1ccc(-c2c(F)cccc2F)o1: 0.97

Below is a list of compounds. For each, state its recorded log10 IC50.
1. N#C/N=C1\SCCN1C(=O)c1ccc(-c2ccc(Cl)cc2)o1
2. N#C/N=C1\SCCN1C(=O)c1ccc(-c2ccc(Br)cc2)o1

0.67
1.03

* * *

biological target: Escherichia coli β-glucuronidase (EcGUS) (Escherichia coli, UniProt P05804); construct: inferred from the pET28a vector and Ni-NTA purification; made in house; host or cells: E. coli BL21 (DE3); assay: EcGUS-mediated PNPG hydrolysis inhibition assay (screening at 10 µM and IC50); type: biochemical; conditions: 10 µM compound, PNPG 250 µM, EcGUS 2 µg/mL, PBS pH 7.4, 37 °C, 30 min; read-out: Inhibition rate at 10 μM
Decision: inhibition at 10 µM >= 60% yields met, all other cases yield not met.

- N#C/N=C1\SCCN1C(=O)c1ccc(-c2ccccc2Cl)o1: met
- N#C/N=C1\SCCN1C(=O)c1ccc(-c2ccc(F)cc2)o1: met
- N#C/N=C1\SCCN1C(=O)c1ccc(-c2ccc(Cl)cc2)o1: met
- Cc1ccc(-c2ccc(C(=O)N3CCS/C3=N\C#N)o2)cc1: not met

Would you say N#C/N=C1\SCCN1C(=O)c1ccc(-c2ccc([N+](=O)[O-])cc2)o1 shows inhibition at 10 µM at minimum 60%?
not met

Quick check, inhibition at 10 µM >= 60%? COc1ccc(-c2ccc(C(=O)N3CCS/C3=N\C#N)o2)cc1
not met

Does the reported inhibition at 10 µM for N#C/N=C1\SCCN1C(=O)c1ccc(-c2ccc(Br)cc2)o1 fall at or above the 60% mark?
met

* * *

Give measured melting point for each item. Keep answers brief.

Example cases with answers are listed next.
- N#C/N=C1\SCCN1C(=O)c1ccc(-c2ccccc2Cl)o1: 101 to 102 °C
- Cc1ccc(-c2ccc(C(=O)N3CCS/C3=N\C#N)o2)cc1: 151 to 152 °C
- N#C/N=C1\SCCN1C(=O)c1ccc(-c2cccc(Cl)c2)o1: 166 to 167 °C
- N#C/N=C1\SCCN1C(=O)c1ccc(-c2ccccc2F)o1: 137 to 138 °C
- N#C/N=C1\SCCN1C(=O)c1ccc(-c2ccc(Cl)cc2)o1: 149 to 150 °C

Give melting point for each listed item.
1. N#C/N=C1\SCCN1C(=O)c1ccc(-c2ccc(F)cc2F)o1
2. N#C/N=C1\SCCN1C(=O)c1ccc(-c2c(F)cccc2F)o1
3. N#C/N=C1\SCCN1C(=O)c1ccc(-c2ccc([N+](=O)[O-])cc2)o1
4. COc1ccc(-c2ccc(C(=O)N3CCS/C3=N\C#N)o2)cc1

1. 140 to 141 °C
2. 136 to 137 °C
3. > 290 °C
4. 151 to 152 °C
